conditionSummary: 308.15 K; 101 kPa; Liquid
Please note: mass density exactly at 900 kg/m3 is class 0. Only values below 900 kg/m3 get class 1.

molecule | label
c1ccccc1 | class 1
CCCCn1cc[n+](C)c1.F[P-](F)(F)(F)(F)F [1-butyl-3-methylimidazolium hexafluorophosphate] | class 0
CC#N | class 1
CCCO | class 1
CCCCn1cc[n+](C)c1.F[B-](F)(F)F [1-butyl-3-methylimidazolium tetrafluoroborate] | class 0

Values from the NIST ThermoML archive (doi:10.1021/je700266n)
